// provenance: patent US20200054723A1

- Measured on: T1, recombinant human Siglec-8 extracellular domain (ECD) (human, UniProt Q9NYZ4 17-363)
- T1 construct: extracellular domain; also called Siglec-8 ECD; full Siglec-8 ECD
- Run description: ELISA, coated Siglec-8 ECD
// values below are reported EC50
Quick note: give the figure in nM, leave out the unit.

INPUT: Identify EC50 associated with the binder RHE E-DKC (antibody, human IgG1, V domains shown, human IgG1/kappa) VH: EVQLVESGGGLVQPGGSLRLSCAASGFSLTIYGAHWVRQAPGKGLEWVGVIWAGGSTNYNSALMSRFTISKDNSKNTVYLQMNSLRAEDTAVYYCARDGSSPYYYSMDYWGQGTTVTVSS VL: EIILTQSPATLSLSPGERATLSCSATSSVSYMHWFQQKPGQAPRLLIYSTSNLASGIPARFSGSGSGTDFTLTISSLEPEDFAVYYCQQRSSYPFTFGPGTKLDIK
OUTPUT: 0.516

INPUT: Identify EC50 associated with the binder cVHKB (antibody, human IgG1, V domains shown, human IgG1/kappa) VH: QVQLKESGPGLVAPSQSLSITCTVSGFSLTIYGAHWVRQPPGKGLEWLGVIWAGGSTNYNSALMSRLSISKDNSKSQVFLKINSLQTDDTALYYCARDGSSPYYYSMEYWGQGTSVTVSS VL: EIILTQSPATLSLSPGERATLSCSATSSVSYMHWFQQKPGQAPRLWIYSTSNLASGVPARFSGSGSGTDYTLTISSLEPEDFAVYYCQQRSSYPFTFGPGTKLDIK
OUTPUT: 0.027
